- target-under-test: Human C3 (human, UniProt P01024 23-1663)
- Sequence (P01024 23-1663 limits assumed): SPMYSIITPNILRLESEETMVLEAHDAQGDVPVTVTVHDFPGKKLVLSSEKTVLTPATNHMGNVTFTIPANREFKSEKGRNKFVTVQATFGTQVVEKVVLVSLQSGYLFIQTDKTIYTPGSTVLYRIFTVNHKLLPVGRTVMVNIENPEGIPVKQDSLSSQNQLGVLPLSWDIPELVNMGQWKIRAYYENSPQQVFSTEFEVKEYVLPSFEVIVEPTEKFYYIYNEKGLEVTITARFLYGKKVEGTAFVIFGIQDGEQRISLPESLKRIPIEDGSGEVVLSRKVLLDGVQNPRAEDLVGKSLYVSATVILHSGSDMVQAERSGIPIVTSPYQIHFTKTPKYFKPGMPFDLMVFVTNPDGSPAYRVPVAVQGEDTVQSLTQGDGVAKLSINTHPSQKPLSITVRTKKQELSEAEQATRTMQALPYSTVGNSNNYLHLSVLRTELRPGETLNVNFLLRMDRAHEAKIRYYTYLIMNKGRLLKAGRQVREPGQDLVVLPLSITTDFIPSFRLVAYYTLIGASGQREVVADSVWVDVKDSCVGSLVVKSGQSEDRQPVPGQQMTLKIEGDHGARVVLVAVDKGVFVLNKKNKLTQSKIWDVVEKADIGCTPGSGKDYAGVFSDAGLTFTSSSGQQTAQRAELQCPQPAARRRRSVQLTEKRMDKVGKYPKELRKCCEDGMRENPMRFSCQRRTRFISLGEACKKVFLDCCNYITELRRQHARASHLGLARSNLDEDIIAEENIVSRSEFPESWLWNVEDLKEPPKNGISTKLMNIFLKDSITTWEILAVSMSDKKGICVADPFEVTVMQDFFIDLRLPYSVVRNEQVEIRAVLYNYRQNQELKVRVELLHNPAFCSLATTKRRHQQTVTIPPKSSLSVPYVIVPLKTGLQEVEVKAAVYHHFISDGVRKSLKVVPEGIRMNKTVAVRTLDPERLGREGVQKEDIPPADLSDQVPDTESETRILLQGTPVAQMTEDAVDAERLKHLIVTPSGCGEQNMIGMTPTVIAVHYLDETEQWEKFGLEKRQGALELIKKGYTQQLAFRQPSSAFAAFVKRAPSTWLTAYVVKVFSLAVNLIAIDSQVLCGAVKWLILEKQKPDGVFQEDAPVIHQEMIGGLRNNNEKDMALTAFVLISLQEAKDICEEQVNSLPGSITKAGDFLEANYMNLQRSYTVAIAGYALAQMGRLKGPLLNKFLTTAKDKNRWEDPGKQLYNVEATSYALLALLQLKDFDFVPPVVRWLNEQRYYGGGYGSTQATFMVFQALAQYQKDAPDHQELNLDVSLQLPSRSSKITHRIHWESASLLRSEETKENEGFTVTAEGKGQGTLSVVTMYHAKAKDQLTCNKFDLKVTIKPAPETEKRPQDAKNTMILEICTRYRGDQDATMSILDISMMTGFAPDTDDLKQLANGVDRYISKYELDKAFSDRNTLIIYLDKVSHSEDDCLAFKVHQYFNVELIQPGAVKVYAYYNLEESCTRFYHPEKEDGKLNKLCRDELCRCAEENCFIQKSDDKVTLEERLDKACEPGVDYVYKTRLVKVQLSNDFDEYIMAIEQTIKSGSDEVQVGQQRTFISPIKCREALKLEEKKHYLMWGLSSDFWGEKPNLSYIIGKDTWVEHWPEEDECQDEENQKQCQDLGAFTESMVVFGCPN
- run-description: cell-based or functional assay
Positions of bridges follow the written chain, without caps; N, C: chain ends. Non-standard residues stand in square brackets, D forms with d. Trp(1-Me) = Cn1cc(C[C@H](N)C(=O)O)c2ccccc21; Sar = CNCC(=O)O
observation-type: IC50[nM], inhibition of hemolysis

(Q) Request the reported IC50[nM], inhibition of hemolysis associated with Ac-SEFCI[Trp(1-Me)]QDWGEHRC[Sar]E-NH2 (disulfide 4-14; SMILES CC[C@H](C)[C@@H]1NC(=O)[C@@H](NC(=O)[C@H](Cc2ccccc2)NC(=O)[C@H](CCC(=O)O)NC(=O)[C@H](CO)NC(C)=O)CSSC[C@@H](C(=O)N(C)CC(=O)N[C@@H](CCC(=O)O)C(N)=O)NC(=O)[C@H](CCCNC(=N)N)NC(=O)[C@H](Cc2c[nH]cn2)NC(=O)[C@H](CCC(=O)O)NC(=O)CNC(=O)[C@H](Cc2c[nH]c3ccccc23)NC(=O)[C@H](CC(=O)O)NC(=O)[C@H](CCC(N)=O)NC(=O)[C@H](Cc2cn(C)c3ccccc23)NC1=O) [Compound 78]
(A) < 100 nM
